# target.entity: Neuromedin-B receptor (Homo sapiens)
# Sequence (P28336 whole entry): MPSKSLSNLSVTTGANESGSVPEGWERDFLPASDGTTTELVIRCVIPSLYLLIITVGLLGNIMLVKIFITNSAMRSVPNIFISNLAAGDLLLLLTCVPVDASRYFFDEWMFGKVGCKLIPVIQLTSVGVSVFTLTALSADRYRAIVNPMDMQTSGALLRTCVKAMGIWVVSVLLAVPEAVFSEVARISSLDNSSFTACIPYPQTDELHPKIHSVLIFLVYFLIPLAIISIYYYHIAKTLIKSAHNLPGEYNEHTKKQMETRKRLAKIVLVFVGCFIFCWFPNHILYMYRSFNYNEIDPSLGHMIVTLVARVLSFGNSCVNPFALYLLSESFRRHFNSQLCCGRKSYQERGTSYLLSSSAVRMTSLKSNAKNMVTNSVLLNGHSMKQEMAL
# test.description: Displacement of [125I]-(D-Tyr0)NMB from human neuromedin B receptor transfected in HEK293 cells
metric.name: pIC50
Give bare numbers, as −log10 of the molar value.

{"molecule": "Cc1ccc2c(c1)NC(c1ccccc1Cl)C1C(=O)CC(C)(C)CC1=N2 (stereo not given)", "observed.result": 6.55}
{"molecule": "CC1(C)CC(=O)C2C(=Nc3ccc(O)cc3NC2c2c(F)cccc2Cl)C1 (stereo not given)", "observed.result": 5.00}
{"molecule": "Cc1ccc2c(c1)NC(c1ccccc1F)C1C(=O)CC(C)(C)CC1=N2 (stereo not given)", "observed.result": 5.89}
{"molecule": "CC1(C)CC(=O)C2C(=Nc3ccc(C(N)=O)cc3NC2c2c(F)cccc2Cl)C1 (stereo not given)", "observed.result": 5.00}

In: Record CC1(C)CC(=O)C2C(=Nc3ccc(C#N)cc3NC2c2c(F)cccc2Cl)C1 (stereo not given) : what is its pIC50 with Neuromedin-B receptor (Homo sapiens)?
Out: 5.89

Reference source: BindingDB's records for doi:10.1016/j.bmcl.2009.05.124
